assay: Activity against adenosine diphosphate (ADP) induced platelet aggregation
attribute_measured: IC50 (µM)

- smi: "CCCCCCOc1ccc(C(=O)OCCCC[N+](C)(C)C)cc1"
  IC50, µM: 22.5
- smi: "CCCCCCOc1c(C)cc(C(=O)OCCCC[N+](C)(C)C)cc1C"
  IC50, µM: 12
- smi: "CCCCCCOc1c(OC)cc(C(=O)OCc2ccccc2C[N+](C)(C)C)cc1OC"
  IC50, µM: 16
- smi: "CCCCCCOc1c(OC)cc(CCCCc2scnc2C)cc1OC"
  IC50, µM: 13.5
- smi: "CCCCCCCCCCCCCCCCOc1c(OC)cc(C(=O)OCCCC[N+](C)(C)C)cc1OC"
  IC50, µM: 2.9

I = CCCCCCOc1c(Cl)cc(C(=O)OCCCC[N+](C)(C)C)cc1OC
II = CCCCCCCCCCOc1c(OC)cc(C(=O)OCC[N+](C)(C)C)cc1OC
III = CCCCCCCCOc1c(OC)cc(C(=O)OCCCC[N+](C)(C)C)cc1OC
query: # rank by IC50, ascending (min first) Quick reminder: the answer is the labels in the order asked.
result: II, I, III
